Catalogue of IC50 values
target: canine TRPM8 (Canis lupus familiaris, UniProt Q1A7N1); construct: expressed in transfected cells; assay: In vitro canine TRPM8 functional assay (Ca2+-sensitive dye, FLIPR/FDSS, icilin activation); assay type: cell-based; details: IC50 (μM), HEK293 cells expressing canine TRPM8, icilin activation; eight-point dose-response
Sequence (Q1A7N1 1-1104): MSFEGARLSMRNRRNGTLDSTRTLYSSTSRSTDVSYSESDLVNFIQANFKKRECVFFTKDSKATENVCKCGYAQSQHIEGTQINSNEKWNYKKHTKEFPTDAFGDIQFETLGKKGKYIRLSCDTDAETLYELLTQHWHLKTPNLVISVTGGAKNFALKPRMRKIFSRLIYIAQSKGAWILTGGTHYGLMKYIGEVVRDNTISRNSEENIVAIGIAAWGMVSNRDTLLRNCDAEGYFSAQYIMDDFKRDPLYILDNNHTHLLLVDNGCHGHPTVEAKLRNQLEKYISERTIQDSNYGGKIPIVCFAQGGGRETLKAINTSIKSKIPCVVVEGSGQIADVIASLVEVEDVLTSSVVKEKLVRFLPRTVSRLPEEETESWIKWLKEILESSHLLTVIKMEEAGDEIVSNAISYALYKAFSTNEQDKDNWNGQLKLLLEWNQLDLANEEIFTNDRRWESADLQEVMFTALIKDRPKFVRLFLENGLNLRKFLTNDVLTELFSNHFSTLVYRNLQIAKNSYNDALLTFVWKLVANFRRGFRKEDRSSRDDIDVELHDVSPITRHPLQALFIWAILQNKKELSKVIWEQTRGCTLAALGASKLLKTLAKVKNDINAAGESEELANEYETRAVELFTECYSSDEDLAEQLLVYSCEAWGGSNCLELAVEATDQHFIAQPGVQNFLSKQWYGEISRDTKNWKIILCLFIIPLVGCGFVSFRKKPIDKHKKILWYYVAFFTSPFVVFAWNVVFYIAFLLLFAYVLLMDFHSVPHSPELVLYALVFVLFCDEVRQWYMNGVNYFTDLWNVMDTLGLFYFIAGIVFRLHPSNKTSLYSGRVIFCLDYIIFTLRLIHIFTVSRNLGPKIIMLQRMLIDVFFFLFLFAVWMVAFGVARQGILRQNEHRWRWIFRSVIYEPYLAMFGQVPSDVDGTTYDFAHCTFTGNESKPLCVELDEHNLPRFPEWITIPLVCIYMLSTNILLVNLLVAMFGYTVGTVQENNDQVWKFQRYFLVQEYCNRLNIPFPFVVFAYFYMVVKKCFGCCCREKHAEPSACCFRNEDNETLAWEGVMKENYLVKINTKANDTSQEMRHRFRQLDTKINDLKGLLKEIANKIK
ATTRIBUTE MEASURED: IC50

> print(dat)
                                   compound  attribute.measured  experimental.result
1  CCOP(=O)(Cc1cc2ccccc2s1)OCc1ccccc1C (stereo not drawn)                IC50              0.96 µM
2  CCOP(=O)(OCC)C(C)(Cc1ccc(F)c(F)c1)c1sc2ccccc2c1C (stereo not drawn)                IC50              0.43 µM
3  CCOP(=O)(OCC)C(Cc1ccc(F)c(F)c1)c1sc2cccc(Cl)c2c1C (stereo not drawn)                IC50               0.3 µM
4  CCOP(=O)(OCCN(C)C)C(Cc1ccc(F)c(F)c1)c1sc2ccccc2c1C (stereo not drawn)                IC50              0.93 µM
5  CCOP(=O)(OCC)C(Cc1cccc(-c2ccncc2)c1)c1sc2ccccc2c1C (stereo not drawn)                IC50              0.36 µM
6  CCOP(=O)(OCC)C(Cc1ccc(F)c(F)c1)c1sc2ccccc2c1-c1cccc(F)c1 (stereo not drawn)                IC50             0.142 µM
7  CCOP(=O)(OCC)C(Cc1ccc(F)c(F)c1)c1sc2cc(OC)ccc2c1C (stereo not drawn)                IC50              0.44 µM
8  CCOP(=O)(OCC)C(Cc1ccc(F)c(F)c1)c1oc2ccccc2c1C (stereo not drawn)                IC50             0.041 µM
9  CCOP(=O)(OCC)C(Cc1ccc(F)c(F)c1)c1sc2ccccc2c1Br (stereo not drawn)                IC50             0.052 µM
